# Method description: NCI Yeast Anticancer Drug Screen. Data for the bub3 strain (AID 167)
# Condition parameters: S. cerevisiae bub3 mutant strain, at 50.0 µM (retest, dose inferred, filed as 5.0), active compounds read high
Compounds without any hit were thinned out: in the full panel of roughly 79,000, 15% have a hit.
Reported metric: growth inhibition (%)
Return type: number; implicit unit %.

Completed entries (count: 4):
CC(C)c1ccc(/C=C2\CSCC3=C2NC(=S)NC3c2ccc(C(C)C)cc2)cc1 (stereo unspecified)    95
Cc1ccc(N)c(Cc2c(O)ccc3ccccc23)c1    66
C[CH2][Sn]([CH2]C)([O]C(=O)c1c(F)cccc1F)[O][Sn]([CH2]C)([CH2]C)[O]C(=O)c1c(F)cccc1F    72
O=C(O)CCCCC1CCCCC1.[Cu+2]    91

In the following, a different compound is considered.
Query string: Could you tell me which growth inhibition is on file for CCS(=O)(=O)/C=C(\C#Cc1ccccc1)c1ccccc1 ?
Result string: 99

###

# Method description: NCI Yeast Anticancer Drug Screen. Data for the cln2 rad14 strain (AID 165);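 note: 0% = growth equal to vehicle treated cultures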
# Condition parameters: S. cerevisiae cln2 rad14 strain, at 50.0 µM
About 79,000 compounds went through this panel and 15% of them were active in at least one assay; those are over-represented in the sample as a whole. Calls of active or inactive are those of the source. Rule as the data show it: active = growth inhibition above about 70%; inactive = the rest.
Assign a class; possible classes are T (active), F (inactive)

Observe how each entry below is paired with its result.
O=[N+]([O-])c1cc(CN(CCO)CCO)c(O)c2ncccc12    T
CN(C)CCC(/C=C/c1ccccc1)=N\Nc1ccc(Cl)c(Cl)c1    T
O=C(CNC(=O)c1ccccc1)NNc1ccccc1    F
Clc1ccc2oc(N3CCCCC3)nc2c1    T

Query string: Recorded call for CCOC(C)c1ccccc1 (stereo not given) ?
Result string: F

Query string: Entry to check: N=C(N)c1ccc2oc3ccc(C(=N)N)cc3c(=O)c2c1
Result string: T

Query string: Entry to check: Cc1ccccc1N1CCN(c2c3c(nc4ccccc24)CCCCC3)CC1
Result string: T

Query string: Entry to check: CCCCNC(=S)NC1C2CC3CC(C2)CC1C3 (stereo not given)
Result string: T

Query string: Entry to check: O=C1CCSC(=S)N1c1ccc(N=Nc2ccccc2)cc1
Result string: T

Query string: Entry to check: O=S(=O)(c1ccc(O)cc1)c1ccc(Cl)cc1
Result string: F

###

# Method description: NCI Yeast Anticancer Drug Screen. Data for the rad50 strain (AID 155);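 note: 0% = growth of vehicle-only cultures of the same strain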
# Condition parameters: S. cerevisiae rad50 strain growth inhibition; at 50.0 µM
This is part of a sample that, as a whole, favours compounds with a hit. Of some 79,000 tested, about 15% had one in any assay. Activity calls are given as the source filed them. Cut-off read from the data, not from the text of the source: active = growth inhibition above about 70%; inactive = the rest.
Assign a class; possible classes are T for active, F for inactive

Observe how each entry below is paired with its result.
O=C(O)CCCc1ccc2c(c1Br)C=CC2    T
COc1ccc2c(c1)C(=O)C(Br)CC2 (stereo unspecified)    F
CCCCCCN(CCCCCC)CC(O)c1cc(-c2ccccc2)nc2c(O)cccc12 (stereo unspecified)    F
O=C(O)CCC(=O)c1ccc(C2CCCC2)c2ccccc12    F
COc1cc(OC)cc(C2OC3=C(Nc4ccc([N+](=O)[O-])cc4N3)C2=O)c1 (stereo unspecified)    T

Query string: Recorded call for CC(=O)OC1(c2ccccc2)N=C(c2ccccc2)N=C1c1ccccc1 (stereo unspecified) ?
Result string: F

Query string: Entry to check: CN(C)CC1CCC/C(=C\c2ccc(Cl)cc2)C1=O (stereo unspecified)
Result string: T

Query string: Entry to check: COc1cc(OC)c(SSCCCCS(=O)O)c(OC)c1
Result string: F

Query string: Entry to check: CC(C)(C)c1ccc(CN2CCN(C(c3ccccc3)c3ccc(Cl)cc3)CC2)cc1 (stereo unspecified)
Result string: F

Query string: Entry to check: Oc1ccc(CNCc2ccccc2)c2cccnc12
Result string: T

Query string: Entry to check: Cn1c(-c2ccc(/C=N/NC(N)=NCCCCCCN=C(N)N/N=C/c3ccc(-c4c[n+]5ccccc5n4C)cc3)cc2)c[n+]2ccccc12
Result string: T

These entries and their values trace back to PubChem BioAssay (NCI).
